Reported pIC50, HM74A receptor (Homo sapiens, UniProt Q8TDS4).
pIC50: −log10 of the molar value.
measured-attribute: pIC50

(A) O=c1[nH]c(COCCc2cccc(Cl)c2)nc2nnccc12
(B) O=c1[nH]c(COCCc2cc(F)ccc2F)nc2nccnc12
In: Please let me know which one, A or B , has a lower measured pIC50 value. Respond using the label that marks the chosen record.
Out: B
